The measurements presented in this section are drawn from ChEMBL document CHEMBL1154999.

assay: Chemical stability in sodium acetate buffer assessed as half life at pH 5.4 at 37 degC; format: physicochemical
readout: half-life (min)
Express it in min; write the number only.

# return recorded half-life for entry CC(C)(C(=O)NC1CCOP(=O)(N(CCCl)CCCl)N1)c1ccccc1N (stereo unspecified)
17.5

###

assay: Chemical stability in sodium phosphate buffer assessed as half life at pH 6.5 at 37 degC; assay type: physicochemical
readout: half-life (min)
Express it in min; write the number only.

# return recorded half-life for entry CC(C)(C(=O)NC1CCOP(=O)(N(CCCl)CCCl)N1)c1ccccc1N (stereo unspecified)
19.3

###

assay: Chemical stability in sodium acetate buffer assessed as half life at pH 5.6 at 37 degC; assay type: physicochemical
readout: half-life (min)
Express it in min; write the number only.

# return recorded half-life for entry CC(C)(C(=O)NC1CCOP(=O)(N(CCCl)CCCl)N1)c1ccccc1N (stereo unspecified)
27.2
